Overview of reported IC50 across a group of compounds:
experimental system: UniProt:P29990
Sequence (P29990 1346-1475 limits assumed): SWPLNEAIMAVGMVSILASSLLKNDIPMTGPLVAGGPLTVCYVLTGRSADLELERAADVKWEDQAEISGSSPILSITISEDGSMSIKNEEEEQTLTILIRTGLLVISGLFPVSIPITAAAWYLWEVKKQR
Sequence (P29990 1476-2093 limits assumed): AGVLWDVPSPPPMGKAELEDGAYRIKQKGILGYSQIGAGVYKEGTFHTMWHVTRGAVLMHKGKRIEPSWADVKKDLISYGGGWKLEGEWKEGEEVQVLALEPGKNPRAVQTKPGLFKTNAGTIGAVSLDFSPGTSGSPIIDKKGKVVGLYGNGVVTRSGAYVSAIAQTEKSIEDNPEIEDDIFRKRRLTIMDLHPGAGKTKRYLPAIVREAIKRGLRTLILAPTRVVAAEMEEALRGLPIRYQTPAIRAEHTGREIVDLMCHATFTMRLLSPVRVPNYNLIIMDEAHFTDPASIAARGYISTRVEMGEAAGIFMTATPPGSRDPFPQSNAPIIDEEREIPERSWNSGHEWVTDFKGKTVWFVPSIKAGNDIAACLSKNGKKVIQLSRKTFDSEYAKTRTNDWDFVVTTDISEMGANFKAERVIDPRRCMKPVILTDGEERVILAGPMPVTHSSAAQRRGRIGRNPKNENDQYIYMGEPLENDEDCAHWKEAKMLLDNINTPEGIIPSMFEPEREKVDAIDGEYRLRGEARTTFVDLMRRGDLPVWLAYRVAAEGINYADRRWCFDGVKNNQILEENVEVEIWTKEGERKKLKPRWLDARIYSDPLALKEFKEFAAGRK
Type: functional, Thailand/16681/1984
parameter: IC50

In [3]: df
Out[3]:
                               smiles_input      value
0  O=C(Nc1cc(Cl)cc(C(=O)Nc2ccc([C@]34CNC[C@H]3C4)cc2)c1)OCc1ccccc1  > 99.5 µM
1  O=C(O)c1cc2cc(-c3cc(Cl)cn4ncnc34)ccc2[nH]1  > 99.5 µM
2  CCc1cc(C(=O)Nc2ccc3c(c2)CNC3)sc1-c1ccc(Cl)cc1  > 99.5 µM
3  C[C@H](CC(=O)O)NC(=O)c1cc(Cl)cc(NC(=O)OCc2ccccc2)c1  > 99.5 µM
4  Cc1c(C(=O)Nc2cc(-c3cccnc3)ccn2)cc(C#N)n1C    57.7 µM
5  NCc1cccc(NC(=O)CN(C(=O)OCc2ccccc2)c2ccc(OCc3ccccc3)cc2)c1    34.9 µM
6     NCc1cccc(NC(=O)c2cc(Cl)cc(C3CC3)c2)c1  > 99.5 µM
7  CNC(=O)[C@H](Nc1ccc2c(c1)CNC2)c1cc(Cl)cc(C2CC2)c1  > 99.5 µM
8  O=C(Nc1ccc(NS(=O)(=O)c2ccc(Cl)cc2C(=O)O)cc1)c1ccccc1  > 99.5 µM
9  CC(C)(C)OC(=O)N1Cc2ccc(N[C@H](C(=O)O)c3cc(Cl)cc4[nH]ncc34)cc2C1    78.2 µM

meta.source: ChEMBL document CHEMBL5604063
